Listed here: items and their measured -logMIC.
Test system: Staphylococcus aureus
Test: Antibacterial activity against Staphylococcus aureus subsp. aureus MTCC 1430 after 24 hrs by NCCLS M7-A6 serial dilution method
Format: functional

[
  {
    "compound": "CCn1cc(C(=O)O)c(=O)c2cc(F)c(N3CCN(c4nnc(-c5ccc([N+](=O)[O-])c([N+](=O)[O-])c5)o4)CC3)cc21",
    "-logMIC": 3.24
  },
  {
    "compound": "O=C(O)c1cn(C2CC2)c2cc(N3CCN(c4nnc(-c5ccccc5Cl)o4)CC3)c(F)cc2c1=O",
    "-logMIC": 2.43
  },
  {
    "compound": "O=C(O)c1cn(C2CC2)c2cc(N3CCN(c4nnc(-c5ccccc5)o4)CC3)c(F)cc2c1=O",
    "-logMIC": 3.26
  },
  {
    "compound": "O=C(O)c1cn(C2CC2)c2cc(N3CCN(c4nnc(-c5ccc([N+](=O)[O-])c([N+](=O)[O-])c5)o4)CC3)c(F)cc2c1=O",
    "-logMIC": 2.95
  },
  {
    "compound": "CCn1cc(C(=O)O)c(=O)c2cc(F)c(N3CCN(c4nnc(-c5ccc(OC)c(OC)c5)o4)CC3)cc21",
    "-logMIC": 2.43
  },
  {
    "compound": "O=C(O)c1cn(C2CC2)c2cc(N3CCN(c4nnc(-c5cccc([N+](=O)[O-])c5)o4)CC3)c(F)cc2c1=O",
    "-logMIC": 2.24
  },
  {
    "compound": "COc1c(N2CCN(c3nnc(-c4ccc([N+](=O)[O-])c([N+](=O)[O-])c4)o3)C(C)C2)c(F)cc2c(=O)c(C(=O)O)cn(C3CC3)c12 (configuration not stated)",
    "-logMIC": 2.64
  }
]

----------
Test system: Staphylococcus aureus
Assay: Antibacterial activity against Staphylococcus aureus subsp. aureus MTCC 1430 after 24 hrs by NCCLS M7-A6 serial dilution method
Assay type: functional
Listed here: items and their measured -logMIC.
readoutName: -logMIC

[
  {
    "molecule": "COc1ccc(-c2nnc(N3CCN(c4cc5c(cc4F)c(=O)c(C(=O)O)cn5C4CC4)CC3)o2)cc1OC",
    "assayValue": 2.91
  },
  {
    "molecule": "CCn1cc(C(=O)O)c(=O)c2cc(F)c(N3CCN(c4nnc(-c5ccccc5)o4)CC3)cc21",
    "assayValue": 2.58
  },
  {
    "molecule": "COc1ccc(-c2nnc(N3CCN(c4cc5c(cc4F)c(=O)c(C(=O)O)cn5C4CC4)CC3)o2)cc1",
    "assayValue": 3.12
  },
  {
    "molecule": "COc1c(N2CCN(c3nnc(-c4ccc([N+](=O)[O-])cc4)o3)C(C)C2)c(F)cc2c(=O)c(C(=O)O)cn(C3CC3)c12 (configuration not stated)",
    "assayValue": 3.61
  },
  {
    "molecule": "O=C(O)c1cn(C2CC2)c2cc(N3CCN(c4nnc(-c5ccc([N+](=O)[O-])cc5)o4)CC3)c(F)cc2c1=O",
    "assayValue": 2.63
  },
  {
    "molecule": "CCn1cc(C(=O)O)c(=O)c2cc(F)c(N3CCN(c4nnc(-c5ccccc5Cl)o4)CC3)cc21",
    "assayValue": 3.21
  },
  {
    "molecule": "COc1c(N2CCN(c3nnc(-c4ccccc4)o3)C(C)C2)c(F)cc2c(=O)c(C(=O)O)cn(C3CC3)c12 (configuration not stated)",
    "assayValue": 3.62
  }
]

All values here come from ChEMBL document CHEMBL1817581.
